System: DRAK1
Construct: gene STK17A
test parameters: concentration: 1 μM, replicates: in singlicate; n = 1;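 further: KINOMEscan kinase panel screen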

# compound structure string, %Inh, %
measured = [
    ("Clc1cccc(-c2nc(Nc3ccncc3)c3ccccc3n2)c1", 0),
    ("Fc1cccc(COc2ccc(Nc3ncnc4sc(-c5ccc[nH]5)cc34)cc2Cl)c1", 3),
    ("COC(=O)c1cccc(NC(=O)NCCNc2ccnc(Nc3ccc(F)cc3)n2)c1", 0),
]

----------
Test system: MAP4K5
test parameters: concentration: 1 μM, replicates: in singlicate; n = 1

# compound, %Inh [%]
rows = [
    ("Fc1cccc(COc2ccc(Nc3ncnc4cc[nH]c34)cc2Cl)c1", 7),
    ("Cl.Fc1ccccc1COc1ccc(Nc2ncnc3ccc(-c4nnc(C(F)(F)F)o4)cc23)cc1Cl", 0),
    ("CCn1c(-c2ccncc2)nc2cnccc21", 0),
    ("O=C(Nc1n[nH]c2nc(-c3ccco3)c(Br)cc12)c1ccc(CN2CCCC2)cc1.O=C(O)[C@H](O)[C@@H](O)C(=O)O", 24),
    ("Nc1n[nH]c2nnc(-c3ccccc3)cc12", 0),
    ("COC(=O)c1c(-c2ccccc2)c2cc(Cl)ccc2c(=O)n1Cc1ccc(S(C)(=O)=O)cc1", 0),
    ("NC(=O)c1sc(-n2cnc3ccccc32)cc1OCc1ccccc1F", 21),
    ("CN1c2ccc(-c3ccc(C(=O)NCCO)cc3)cc2-c2[nH]ncc2S1(=O)=O", 25),
    ("Clc1cc(Nc2ncnc3cc[nH]c23)ccc1OCc1ccccn1", 6),
    ("Cn1ccc2ncnc(Oc3ccc(NC(=O)Nc4cccnc4)c(Cl)c3)c21", 0),
    ("Cc1ccc(NC(=O)c2cccc(C#N)c2)cc1-c1ccc(C(=O)Nc2ccncc2)cc1", 0),
    ("CCCc1ccc(S(=O)(=O)NC2CCN(c3ccnc(Nc4ccc(OC)cc4)n3)C2)cc1 (centres unmarked)", 0),
    ("COC(=O)c1cccc(NC(=O)NCCNc2ccnc(Nc3ccc(F)cc3)n2)c1", 0),
    ("c1ccc(-c2ccc3c(-c4ccnc(Nc5ccc6c(c5)OCCO6)n4)cnn3n2)cc1", 20),
    ("CSc1ccc(NC2=C(c3ccccc3Cl)C(=O)NC2=O)cc1", 6),
    ("OCCOCCn1ccc2ncnc(Nc3ccc(Oc4cccc(Cl)c4)c(Cl)c3)c21", 0),
    ("FC(F)(F)c1ccc(-c2cc(-c3c[nH]nc3-c3ccccn3)ccn2)cc1", 8),
]
